assay-system: CDK6/CCND1 (Homo sapiens)
Sequence (Q00534 whole entry): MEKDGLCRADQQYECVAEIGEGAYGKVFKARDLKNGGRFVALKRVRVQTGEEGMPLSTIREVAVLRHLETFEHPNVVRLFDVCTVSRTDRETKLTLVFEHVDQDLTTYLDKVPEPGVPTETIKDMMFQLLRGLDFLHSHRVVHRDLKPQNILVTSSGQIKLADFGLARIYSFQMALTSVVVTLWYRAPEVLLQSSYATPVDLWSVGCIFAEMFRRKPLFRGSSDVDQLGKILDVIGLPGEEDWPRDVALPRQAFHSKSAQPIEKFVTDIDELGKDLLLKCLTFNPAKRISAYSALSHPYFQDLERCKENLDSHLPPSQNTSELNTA
Sequence (P24385 whole entry partner): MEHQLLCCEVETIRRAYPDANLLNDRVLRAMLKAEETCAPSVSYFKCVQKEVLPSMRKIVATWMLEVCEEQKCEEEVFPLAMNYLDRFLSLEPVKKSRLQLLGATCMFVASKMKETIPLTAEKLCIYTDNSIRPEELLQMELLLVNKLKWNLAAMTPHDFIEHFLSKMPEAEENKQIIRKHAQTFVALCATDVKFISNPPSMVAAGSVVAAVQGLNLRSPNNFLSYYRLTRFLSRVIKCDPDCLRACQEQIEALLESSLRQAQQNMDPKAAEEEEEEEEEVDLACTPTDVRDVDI
assay-procedure: CDK6 homogeneous time-resolved fluorescence (HTRF) kinase assay
Type: biochemical
condition-summary: CDK6/CCND; 25-250 nM marked x; read-out: CDK6/CCND IC50 25-250 nM
pIC50: −log10 of the molar value.
Would you kindly list pIC50 for each of these compounds?

INSERT INTO measurements (compound, reported_result) VALUES
  ('N=S(=O)(c1ccc(Nc2cc3c(C#Cc4ccc5c(c4)NC(=O)C54CC4)nccc3cn2)cc1)C1CC1 (single isomer, unassigned) [Ex 306]', '6.60 to 7.60');

Provide the reported pIC50 of each entry below, same order.
1. CS(=O)(=O)N1CCC(Nc2cc3c(-c4cccc(C#N)c4)nccc3cn2)CC1 [Ex 75]
2. Cc1c(-c2nccc3cnc(Nc4ccc(S(C)(=O)=O)cc4)cc23)ccc2c1cnn2CC1CN(C)C1 [Ex 243]
3. Cc1c(-c2nccc3cnc(Nc4ccc(S(C)(=O)=O)cc4)cc23)ccc2c1cnn2CC1CCNC1 (racemic) [Ex 193]
4. CS(=O)(=O)N1CCC(Nc2cc3c(-c4ccc5c(c4)CC(=O)N5)nccc3cn2)CC1 [Ex 91]
5. CC(C)N(C)c1nccc2cnc(NC3CCN(S(C)(=O)=O)CC3)cc12 [Ex 35]
6. CC(C)S(=N)(=O)c1ccc(Nc2cc3c(C#Cc4ccc5c(c4)NC(=O)C5(C)O)nccc3cn2)cc1 (single isomer, unassigned) [Example 279]

Result:
1: 6.60 to 7.60; 2: 6.60 to 7.60; 3: 6.60 to 7.60; 4: 6.60 to 7.60; 5: 6.60 to 7.60; 6: 6.60 to 7.60

Form field pIC50 for item Cc1c(-c2nccc3cnc(Nc4ccc(S(C)(=O)=O)cc4)cc23)ccc2c1cnn2CCO [Ex 267] on CDK6/CCND1 (Homo sapiens): 6.60 to 7.60
